Data origin: patent US20230129095A1

METHOD: Stability in human fecal homogenate (anaerobic)
Type: in vitro ADME
CONDITION_LABEL: pH 6.8, 20% human fecal homogenate, 37° C., up to 24 hours, read-out: t1/2: Human Feces anaerobic
*1 amine or outer side, *2 acyl side, *3 side chain or, on linkers, in order; H or OH if unused. Where a SMILES comes first, the peptide text is derived from it. Bridges are numbered along the chain shown (N, C = ends). [ ]: non-standard residue; d: D form. Trp(7-Ph) = N[C@@H](Cc1c[nH]c2c(-c3ccccc3)cccc12)C(=O)O; Abu(4-yl) = O=C([C@H](CC[*:3])N[*:1])[*:2]; 2Nal = N[C@@H](Cc1ccc2ccccc2c1)C(=O)O; AEF = NCCOc1ccc(C[C@H](N)C(=O)O)cc1; αMeK = C[C@](N)(CCCCN)C(=O)O

MOLECULE	half-life at 20 μM
CC(=O)NCCCC[C@@H]1NC(=O)[C@H](Cc2c[nH]c3c(-c4ccccc4)cccc23)NC(=O)[C@H]([C@@H](C)O)NC(=O)[C@H](CCC(N)=O)NC(=O)[C@@H](NC(C)=O)CCSC[C@@H](C(=O)N[C@@H](Cc2ccc(OCCN)cc2)C(=O)N[C@@H](Cc2ccc3ccccc3c2)C(=O)N[C@@](C)(CCCCN)C(=O)N[C@@H](CCCCNC(C)=O)C(=O)N[C@@H](CC(N)=O)C(=O)N[C@H](CCCCN)C(N)=O)NC1=O [Peptide 19] (Ac-[Abu(4-yl)]QT[Trp(7-Ph)]K(Ac)C[AEF][2Nal][αMeK]K(Ac)N[dK]-NH2; thioether 1-6)	> 24 h
